# SYSTEM TESTED: T1, human CD19 on CHO-K1-human CD19 cells (human, UniProt P15391 20-556)
# T1 construct: whole, on cells; also called CHO-K1-human CD19-2C8
# T1 sequence (looked up): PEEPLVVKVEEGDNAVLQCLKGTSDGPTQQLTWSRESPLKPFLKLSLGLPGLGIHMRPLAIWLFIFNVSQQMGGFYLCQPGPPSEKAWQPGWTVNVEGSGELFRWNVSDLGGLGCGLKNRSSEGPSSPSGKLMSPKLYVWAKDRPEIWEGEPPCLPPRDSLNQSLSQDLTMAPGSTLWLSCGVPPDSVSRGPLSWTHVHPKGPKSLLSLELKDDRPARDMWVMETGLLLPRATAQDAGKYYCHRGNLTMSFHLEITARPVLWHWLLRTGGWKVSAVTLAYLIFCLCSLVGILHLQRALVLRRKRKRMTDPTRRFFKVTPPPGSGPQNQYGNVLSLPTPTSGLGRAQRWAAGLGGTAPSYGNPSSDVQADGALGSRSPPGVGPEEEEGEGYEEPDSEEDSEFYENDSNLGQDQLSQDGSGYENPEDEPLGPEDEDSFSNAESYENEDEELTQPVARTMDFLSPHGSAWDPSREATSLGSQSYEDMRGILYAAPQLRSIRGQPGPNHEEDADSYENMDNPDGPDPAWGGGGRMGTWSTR
# ASSAY COMMENT: FACS on CHO-K1-human CD19 cells

- BINDER: "F4.4.6 (antibody, human IgG1, V domains shown, human-murine chimeric antibody, human IgG1) VH: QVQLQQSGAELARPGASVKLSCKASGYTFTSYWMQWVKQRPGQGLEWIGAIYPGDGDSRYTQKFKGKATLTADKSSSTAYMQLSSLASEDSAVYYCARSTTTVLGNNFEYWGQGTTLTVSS VL: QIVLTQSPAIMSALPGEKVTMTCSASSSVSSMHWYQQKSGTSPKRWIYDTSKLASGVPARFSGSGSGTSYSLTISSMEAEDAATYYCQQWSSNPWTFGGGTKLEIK"
  EC50 (nM): 0.08
- BINDER: "F4.48.12 (antibody, human IgG1, V domains shown, human-murine chimeric antibody, human IgG1) VH: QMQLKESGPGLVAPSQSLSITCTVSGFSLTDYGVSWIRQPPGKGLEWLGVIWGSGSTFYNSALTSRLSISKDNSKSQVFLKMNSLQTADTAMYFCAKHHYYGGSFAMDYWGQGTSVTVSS VL: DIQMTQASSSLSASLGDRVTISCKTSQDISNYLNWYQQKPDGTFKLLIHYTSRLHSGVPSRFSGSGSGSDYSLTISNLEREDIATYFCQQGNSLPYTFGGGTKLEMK"
  EC50 (nM): 0.48
- BINDER: "F2.15.26 (antibody, human IgG1, V domains shown, human-murine chimeric antibody, human IgG1) VH: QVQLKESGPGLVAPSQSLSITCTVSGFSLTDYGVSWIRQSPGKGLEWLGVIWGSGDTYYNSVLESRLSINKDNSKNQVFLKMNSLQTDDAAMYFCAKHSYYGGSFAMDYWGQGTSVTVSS VL: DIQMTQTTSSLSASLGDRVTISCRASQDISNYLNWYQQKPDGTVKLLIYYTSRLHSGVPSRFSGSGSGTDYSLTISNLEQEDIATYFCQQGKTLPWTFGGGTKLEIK"
  EC50 (nM): 0.71
